# Target: MDR1 (ABCB1, P-glycoprotein) (Homo sapiens, UniProt P08183)
# Sequence (P08183 whole entry): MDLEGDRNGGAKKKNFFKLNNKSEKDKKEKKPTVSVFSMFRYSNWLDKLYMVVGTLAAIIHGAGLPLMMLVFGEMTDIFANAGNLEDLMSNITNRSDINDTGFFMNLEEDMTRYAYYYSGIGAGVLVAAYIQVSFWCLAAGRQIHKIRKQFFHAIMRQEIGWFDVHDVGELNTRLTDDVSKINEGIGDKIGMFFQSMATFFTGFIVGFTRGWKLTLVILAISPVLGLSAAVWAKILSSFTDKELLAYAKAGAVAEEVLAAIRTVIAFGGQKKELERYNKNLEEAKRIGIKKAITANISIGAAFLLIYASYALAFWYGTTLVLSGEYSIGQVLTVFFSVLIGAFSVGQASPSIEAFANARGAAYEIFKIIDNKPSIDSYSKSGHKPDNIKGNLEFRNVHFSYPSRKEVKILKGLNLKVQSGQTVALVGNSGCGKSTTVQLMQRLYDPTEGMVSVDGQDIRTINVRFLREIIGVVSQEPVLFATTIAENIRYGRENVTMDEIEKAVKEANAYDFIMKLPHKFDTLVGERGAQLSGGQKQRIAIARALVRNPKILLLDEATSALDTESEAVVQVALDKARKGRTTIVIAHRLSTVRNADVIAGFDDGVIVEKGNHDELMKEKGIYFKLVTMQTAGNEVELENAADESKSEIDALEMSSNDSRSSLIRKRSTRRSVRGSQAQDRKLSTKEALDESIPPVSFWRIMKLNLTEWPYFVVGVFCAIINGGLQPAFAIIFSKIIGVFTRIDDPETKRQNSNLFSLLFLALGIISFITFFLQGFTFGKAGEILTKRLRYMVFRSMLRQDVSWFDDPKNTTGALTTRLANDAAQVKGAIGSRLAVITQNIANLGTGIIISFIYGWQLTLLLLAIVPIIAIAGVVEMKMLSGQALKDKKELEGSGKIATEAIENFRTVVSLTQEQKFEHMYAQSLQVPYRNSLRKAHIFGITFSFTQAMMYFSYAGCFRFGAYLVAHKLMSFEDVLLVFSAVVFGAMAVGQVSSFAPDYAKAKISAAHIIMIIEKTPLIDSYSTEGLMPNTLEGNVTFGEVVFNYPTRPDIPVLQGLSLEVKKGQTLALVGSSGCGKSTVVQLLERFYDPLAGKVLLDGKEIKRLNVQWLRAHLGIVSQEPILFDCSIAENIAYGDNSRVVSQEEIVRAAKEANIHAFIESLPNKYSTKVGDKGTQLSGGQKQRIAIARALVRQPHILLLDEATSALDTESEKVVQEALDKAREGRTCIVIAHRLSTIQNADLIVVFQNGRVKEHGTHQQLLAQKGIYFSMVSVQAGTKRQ
# Run Description: Inhibition of MDR1 in multidrug resistant human A2780/DX3 cells assessed as accumulation of doxorubicin at 5 times compound concentration that giving 5% antiproliferative activity after 4 hrs by cytofluorimetric assay relative to (Z)-8-(4-chlorophenyl)-5-methyl-8-(pent-2-enyl-oxy)-[1,2,4]oxadiazolo[3,4-c][1,4]thiazin-3(8H)-one
# Format: cell-based, A2780 ADR
# Condition Summary: probe doxorubicin
Test Readout: inhibition at 4 h (%)
One number for each entry, in %.

# count of solved cases: 3
• CCC/C=C\COC1(c2ccc(Cl)cc2)SC=C(C)n2c1noc2=O (racemic) = 131
• CC/C=C\COC1(c2ccc(Br)cc2)SC=C(C)n2c1noc2=O (racemic) = 139
• CC/C=C\CO[C@]1(c2ccc(Cl)cc2)SC=C(C)n2c1noc2=O = 48

Items follow; give inhibition at 4 h for each.
1. CCC/C=C/COC1(c2ccc(Cl)cc2)SC=C(C)n2c1noc2=O (racemic)
2. CC/C=C/COC1(c2ccc(Cl)cc2)SC=C(C)n2c1noc2=O (racemic)
3. CCCCCCOC1(c2ccc(Br)cc2)SC=C(C)n2c1noc2=O (racemic)
4. CCCCCCOC1(c2ccc(Cl)cc2)SC=C(C)n2c1noc2=O (racemic)

Result:
1: 109; 2: 35; 3: 72; 4: 18

For "CC/C=C\CO[C@@]1(c2ccc(Cl)cc2)SC=C(C)n2c1noc2=O" the compound record lists inhibition at 4 h as 136
